test: Cmax in CD-1 mouse at 5 mg/kg, po administered via gavage by LC-MS/MS analysis; format: ADME, organism-based; design: route oral, dose 5 mg/kg; settings: in vivo
METRIC: Cmax

Given Cc1cc(C(=O)O)nc(N2CCC(COc3ccccc3C(F)(F)F)C2)n1 (racemic) , state its recorded Cmax.
3030 ng/mL

---

biological target: Retinol-binding protein 4 (Homo sapiens); assay: Displacement of [3H]-all-trans-retinol from MBP-tagged RBP4 (unknown origin) expressed in Escherichia coli assessed as reduction in untagged Eu-labelled TTR-RBP4 interaction measured after overnight incubation by HTRF assay
METRIC: IC50

What does the data say about its IC50? Entry: Cc1cc(C(=O)O)nc(N2CCC(COc3ccc(F)cc3C(F)(F)F)C2)n1 (racemic)
870 nM
